- System: CCRF-CEM leukemia
- Protocol: NCI tumour cell line growth inhibition, 48 h
Could you please report measured TGI for the items listed next?

Give reported TGI for Nc1ncc2c(n1)-c1ccccc1OC2N1CCCC1 (stereo not given) (CCRF-CEM leukemia)
> 100 µM

Param request: TGI | system CCRF-CEM leukemia | item CC12c3ccccc3C(OC=O)(c3ccccc31)C1(C)c3ccccc3C2(OC=O)c2ccccc21
89.1 µM

Report TGI on CCRF-CEM leukemia for this entry: O=C(CC(=O)Nc1ccccc1)NNC(Sc1ccccc1)c1cc(N=Nc2ccc(Br)cc2)ccc1O (stereo not given)
> 10 µM

Send back CCRF-CEM leukemia TGI of CN(C)CCNC(=O)Cc1ccccc1Nc1c(Cl)cccc1Cl only.
34 µM

Write TGI of COc1cccc2c1O/C(=C\c1ccc([N+](=O)[O-])s1)C2=O ; system used: CCRF-CEM leukemia
> 23.4 µM

Answer briefly: TGI recorded on CCRF-CEM leukemia for COC(=O)/C=C/c1cc(OC(C)=O)c2c(c1)C(C(=O)OC)C(c1ccc(OC(C)=O)c(OC(C)=O)c1)O2 (stereo not given)
> 100 µM

Consider the molecule COc1ccc(CNc2c3ccccc3nc3ccccc23)cc1F tested on CCRF-CEM leukemia; state its TGI.
35.6 µM

Report the value of TGI obtained on CCRF-CEM leukemia for COc1cc2c(cc1OCCCN1CCN(CCCOc3cc4c(cc3OC)C(=O)N3CC(F)(F)C[C@H]3C=N4)CC1)N=C[C@@H]1CC(F)(F)CN1C2=O .
8.51 µM

For CCRF-CEM leukemia, give TGI of the listed molecule: Cn1c2ccccc2c2c(=S)c3ccccc3ccc21
> 100 µM

Provide TGI, recorded with CCRF-CEM leukemia, of CCCCCCCCSC1=C(Cl)C(=O)C(OC)=C(OC)C1=O
> 100 µM

====

- Test system: HOP-18 NSCLC
- Protocol: NCI tumour cell line growth inhibition, 48 h
Would you kindly list TGI for each of these compounds?

Look up and state reported TGI for CCCCNCCCNCCCNC(=O)c1csc(-c2csc(CCNC(=O)C(NC(=O)C(C)C(O)C(C)NC(=O)C(NC(=O)c3nc(C(CC(N)=O)NCC(N)C(N)=O)nc(N)c3C)C(OC3OC(CO)C(O)C(O)C3OC3OC(CO)C(O)C(OC(N)=O)C3O)c3cnc[nH]3)C(C)O)n2)n1 (stereo unspecified)
> 100 µM

Answer with reported TGI of O=Cc1cc2c(cc1-c1cc3c(cc1C=O)OCO3)OCO2
> 100 µM

Note down TGI recorded for Cc1cc(C)nc(NS(=O)(=O)c2ccc(Nc3c4ccccc4nc4c(C(=O)N5CCN(CCO)CC5)cccc34)cc2)n1
> 100 µM

Give a short answer stating reported TGI for Nc1c(S(=O)(=O)c2ccc(Cl)cc2)c2nc3ccccc3nc2n2ccnc12 .
79.3 µM

Look up TGI of CCCC(=O)OC[n+]1ccc2c(C)c3[nH]c4ccccc4c3c(C)c2c1 and report it.
2.99 µM

Report TGI for CCCCCCCCc1cc2c(O)c(c1)Cc1cc(CCCCCCCC)cc(c1O)Cc1cc(CCCCCCCC)cc(c1O)Cc1cc(CCCCCCCC)cc(c1O)Cc1cc(CCCCCCCC)cc(c1O)Cc1cc(CCCCCCCC)cc(c1O)C2
> 100 µM

====

I'd appreciate it if you could supply GI50 values for the items below.
- Test system: 786-0 renal
- Protocol: NCI tumour cell line growth inhibition, 48 h

Could you please provide reported GI50 for Cc1nc2sccn2c1-c1nc2sccn2c1/C=C1/C(=O)Nc2ccccc21 ? Thanks!
1790 nM

Determine from records and report GI50 for COc1cc2c(cc1OCCCN1CCN(CCCOc3cc4c(cc3OC)C(=O)N3CC(F)(F)C[C@H]3C=N4)CC1)N=C[C@@H]1CC(F)(F)CN1C2=O
3170 nM

For C=CC12CCN(CC1)C(C(O)c1ccnc3ccc(OC)cc13)C2 (stereo unspecified) , write its GI50.
> 100000 nM

Give GI50 for the following compound: COC(=O)C1=CN(CC2=CC(=O)C(C)=CC2=O)C=C(C(=O)OC)C1c1ccccc1OC
15100 nM

# return recorded GI50 for input O=C(Nc1ncc(Cc2cccc(C(F)(F)F)c2)s1)c1ccc2c(c1)OCCO2
576 nM

Tell us which GI50 value is on record for CCOC(=O)Nc1c(C)nc2ccccn12
> 100000 nM

Look up and report measured GI50 for this entry: C=C(C)C(C1C=C(CCC(C=O)=C(C)C)C(=O)O1)C1(OC)C=C(C)C(=O)O1 (stereo unspecified)
> 100000 nM

Quick one: give measured GI50 for O=c1[nH]c(-c2cccc(F)c2)cc2cc(F)ccc12
2870 nM

Please supply the value of reported GI50 for the item Cc1nc2c(Br)cc(Br)cc2c(=O)n1-c1nnc(-c2cccc(Cl)c2Cl)c(N)n1
18400 nM

Identify measured GI50 associated with O=C(Nc1nc(-c2c[nH]c3ccccc23)cs1)c1n[nH]c(=O)c2ccccc12
1480 nM

Tell me measured GI50 for COC(=O)/C=C/c1cc(OC(C)=O)c2c(c1)C(C(=O)OC)C(c1ccc(OC(C)=O)c(OC(C)=O)c1)O2 (stereo unspecified) please.
488 nM

====

Give measured TGI for each item. Keep answers brief.
- Test system: SNB-19 CNS
- Protocol: NCI tumour cell line growth inhibition, 48 h

Print SNB-19 CNS TGI for Nc1ncnc2c1ccn2C/C=C/CO .
> 100 µM

Please report the measured TGI for O=c1[nH]c(-c2cccc(F)c2)cc2cc(F)ccc12 tested on SNB-19 CNS.
> 100 µM

GET TGI | system: SNB-19 CNS | item: O=c1[nH]c(=O)n(C2CC(O)C(CO)O2)cc1OS(=O)(=O)C(F)(F)F (stereo unspecified)
> 100 µM

Enter measured TGI, system SNB-19 CNS, for the compound shown: Cc1nc2c(N)ncnc2o1
> 100 µM

System SNB-19 CNS. Read-out TGI. Item C=CCn1c(=O)ccn(/C(=C/C(=O)OCC)C(=O)OCC)c1=O . Report value.
> 58.3 µM

Specify the recorded TGI for COc1c2occc2c(N)c2ccc(=O)oc12 , system: SNB-19 CNS.
> 100 µM

Find the measured TGI of CCN(C(=O)N[C@@H](C)C(=O)N[C@@H](Cc1ccccc1)C(=O)OC)c1ccccc1 with SNB-19 CNS as test system.
> 100 µM

Write TGI of CC(C)(C)OC(=O)NC(CSSCC(NC(=O)OC(C)(C)C)C(=O)O)C(=O)O (stereo unspecified) ; system used: SNB-19 CNS
> 100 µM

Answer with TGI of O=C1c2cccc3cccc(c23)C(=O)N1CCCNCCCCNCCCNCCCN1C(=O)c2cccc3cccc(c23)C1=O measured for SNB-19 CNS.
1.58 µM

Recall the reported TGI of CSC[C@H](NC(=O)COc1cccc2cnccc12)C(=O)NC(Cc1ccccc1)C(O)C(=O)N1CSC[C@H]1C(=O)NC(C)(C)C (stereo partly specified) on SNB-19 CNS and write it down.
> 100 µM

Check SNB-19 CNS data and give TGI for O=C(O)c1cccc(S(=O)(=O)NN2C(=O)CSC2c2ccc(Cl)cc2Cl)c1 (stereo unspecified) .
> 100 µM

====

Kindly state TGI for each of the entries shown.
- System: SF-268 CNS
- Protocol: NCI tumour cell line growth inhibition, 48 h

Quick one: give measured TGI for O=C(CNc1ccc(Cl)cc1Cl)Nn1c(-c2ccccc2)nc2ccccc2c1=O
21.6 µM

Let me know recorded TGI for Cc1nc2ccccc2c(-n2cccn2)c1CCn1cccn1 , thanks.
> 100 µM

Specify TGI for Nc1nc(Cl)nc2c1ncn2C1CC(O)C(CO)O1 (stereo unspecified) and stop.
> 95.7 µM

Identify TGI associated with the molecule c1ccc2c(c1)CCc1c(-c3ccncc3)n[nH]c1-2
> 100 µM

Answer with reported TGI of N#CC(c1ccccc1)N(CCOCCOCCN(C(=O)c1ccccc1)C(C#N)c1ccccc1)C(=O)c1ccccc1 (stereo unspecified)
> 100 µM

State its TGI for this molecule: Cc1ccc2c(c1)c1ccc3c(c1n2C)C(=O)C=CC3=O
> 10 µM

====

- Test system: HT29 colon
- Protocol: NCI tumour cell line growth inhibition, 48 h
Where a SMILES comes first, the peptide text is derived from it. The star is where a group is joined. Palmitoyl = CCCCCCCCCCCCCCCC(=O)*
Readout: TGI

Respond only with TGI recorded for O=[N+]([O-])c1cc2oc(CSc3ccccc3)nc2cc1Cl
> 100 µM

Look up TGI of CCCCCCCCCCCCCCCC(=O)N1CCCC1C(=O)NCC(=O)NC(Cc1ccccc1)C(=O)N1CCCC1C(=O)NC(CO)C(=O)NC(Cc1ccc(O)cc1)C(=O)NC(CCCCN)C(=O)NC(CC(C)C)C(=O)NC(CCCN=C(N)N)C(=O)N1CCCC1C(=O)NCC(N)=O (centres undefined) (Palmitoyl-PGFPSYKLRPG-NH2; configuration not given here) and report it.
29.3 µM

// fetch TGI given entry O=C(NCCCl)O/N=C/c1cccnc1
> 100 µM

Entry NC(=S)N/N=C/c1ncccc1O needs its TGI filled in; supply it.
> 1000 µM

Look up and state reported TGI for Cc1cc(C)nc(NC(=S)Nc2ccc([N+](=O)[O-])cc2)c1
> 100 µM

Respond only with TGI recorded for O=C(c1ccccc1)c1ccc2c(c1)NC(=O)c1ccccc1SSc1ccccc1C(=O)N2
> 100 µM

State, in one line, measured TGI of OCCCc1ccc2c(c1)[C@H](CO)[C@@H](c1ccc(O)cc1)O2
> 100 µM

// fetch TGI given entry NCCCn1c2c(c3ccc([N+](=O)[O-])cc3c1=O)C(=O)c1cc(I)ccc1-2
0.352 µM

Return TGI (reported value) for this compound: CCCCCCn1c(-c2ccc(C(=O)O/N=C(\N)c3ccc4c(c3)OCO4)cc2)nc(-c2ccccc2)c1-c1ccccc1
39.1 µM

For the compound O=C(Nc1ncc(Cc2cccc(C(F)(F)F)c2)s1)c1ccc2c(c1)OCCO2 , give its reported TGI.
> 35.2 µM

Note TGI for the compound shown: CN1CC[C@]2(c3cccc(O)c3)CC(=O)/C(=C/c3ccccc3)[C@@H]1C2
7.55 µM

Dear colleague, please send me the reported TGI for CCOc1c(OC)cc(-c2nc3n(n2)C(=O)C(CC)S3)cc1OC (centres undefined) when you can.
> 10 µM

Provide only the value of recorded TGI for COc1cc2c(cc1OCCCN1CCN(CCCOc3cc4c(cc3OC)C(=O)N3CC(F)(F)C[C@H]3C=N4)CC1)N=C[C@@H]1CC(F)(F)CN1C2=O
> 100 µM

Specify measured TGI for O=C(O)C(O)C(O)C(O)C(O)CO (centres undefined) .
> 100 µM

Return TGI for the following compound: COc1cc(C2c3cc4c(cc3[C@@H](Nc3ccccc3)C3COC(=O)[C@H]23)OCO4)cc(OC)c1O (some centres undefined)
3.64 µM

Provide one value: measured TGI of CCCN(CCC)c1c([N+](=O)[O-])cc(C(=O)N(CC)CC)cc1[N+](=O)[O-]
> 100 µM

Name the recorded TGI of the item C=C(C)C(C1C=C(CCC(C=O)=C(C)C)C(=O)O1)C1(OC)C=C(C)C(=O)O1 (centres undefined) in your answer.
> 100 µM

Tell me its TGI given NC(=O)c1cc(I)ccc1NC(=O)/C=C/c1ccccc1 as the entry.
> 31.8 µM

Return the recorded TGI value; entry: O=c1cccc(C#CC#C[C@@H]2O[C@H]2CO)o1
2.53 µM

Return the recorded TGI value; entry: O=C(Nc1nc(-c2c[nH]c3ccccc23)cs1)c1n[nH]c(=O)c2ccccc12
> 100 µM

Please supply the value of reported TGI for the item CCOC(=O)Nc1c(C)nc2ccccn12
> 100 µM

Please list TGI recorded for the compound CCc1c(O)c(O)c(C(C)=O)c2c(O)c(-c3c(C)cc4c(CC)c(O)c(O)c(C(C)=O)c4c3O)c(C)cc12
17.1 µM

Supply measured TGI of COC1OC2COC(c3ccccc3)OC2C(O)C1OC(=S)c1ccccc1 (centres undefined) in your reply.
47.9 µM

Name the recorded TGI of the item C/C(=N\NC(N)=O)c1sc(-c2nc(C)c(/C(C)=N/NC(N)=O)s2)nc1C in your answer.
> 100 µM

Quickly give me recorded TGI for Cn1c2ccccc2c2c(=S)c3ccccc3ccc21
> 100 µM

Using known records, supply TGI for Cc1cc2c(cc1C)[n+](=O)cc(C(=O)C/C(=N/NC(=S)NN)C(=O)Nc1cccc(C(F)(F)F)c1)n2[O-]
> 100 µM

Quick one: give measured TGI for Cc1cc(C(=O)CSC(=S)SC(C)(C)C)ccc1Cl
69 µM

Let me know recorded TGI for CNc1[nH]c(=S)nc2sc3c(c12)CCCC3 , thanks.
> 75 µM

Write down TGI measured for item O=C(CCSC1=NCCCN1)c1ccc(F)cc1
40.5 µM

State its TGI for this compound: CCOC(=O)CNC(=O)NC12CC3CC(CC(C3)C1)C2
> 550 µM

State its TGI: Cc1cccc(NC2=C(Cl)C(=O)c3nc(C)ccc3C2=O)c1
11.9 µM

Please supply the value of reported TGI for the item Nc1ncc2c(n1)-c1ccccc1OC2N1CCCC1 (centres undefined)
> 100 µM

Return TGI (reported value) for this compound: COC(=O)/C=C/c1cc(OC(C)=O)c2c(c1)C(C(=O)OC)C(c1ccc(OC(C)=O)c(OC(C)=O)c1)O2 (centres undefined)
> 77.5 µM

Please report the measured TGI for C/C1=C\[C@H](C)C[C@H](C)OC(=O)[C@H](C)NC(=O)[C@@H](Cc2ccc(O)c(Br)c2)N(C)C(=O)[C@H](C)NC(=O)[C@@H](C)C1
> 3.13 µM

Supply reported TGI belonging to this compound: COc1c2occc2c(N)c2ccc(=O)oc12
> 100 µM

# return recorded TGI for entry Cc1cc(C[C@H]2O[C@@H]3OC(C)(C)O[C@@H]3[C@H]3OC(C)(C)O[C@H]32)c2ccccc2n1
> 100 µM

Tell us which TGI value is on record for CC12c3ccccc3C(OC=O)(c3ccccc31)C1(C)c3ccccc3C2(OC=O)c2ccccc21
> 100 µM

# return recorded TGI for input CNc1cc2oc(=O)cc(C)c2cc1C
> 100 µM

Please supply the value of reported TGI for the item Cc1cc(N(C)C)c2ccccc2[n+]1CCCCCCCCCC[n+]1c(C)cc(N(C)C)c2ccccc21
> 35 µM
